- Tested Target: Dopamine receptor
- Procedure Details: Tested for in vitro binding affinity against cloned mammalian dopamine autoreceptor (DA) receptors expressed in CHO-K1 cells using [3H]U-86170 as radioligand
- Assay type: cell-based
Would you mind telling me the reported Ki of each entry?
Numbers only, in nM.

Observe how each entry below is paired with its result.
[[record]]
compound = "CCCN1CCCC2c3cccc(OS(=O)(=O)C(F)(F)F)c3CCC21 (stereo in doubt; 46)"
tested_target = "Dopamine receptor"
uom = "nM"
readout_value = 21

[[record]]
compound = "CCCN1CCC[C@@H](c2cccc(OS(=O)(=O)C(F)(F)F)c2)C1"
tested_target = "Dopamine receptor"
uom = "nM"
readout_value = 40

[[record]]
compound = "CCCN1CCC[C@@H](c2cccc(SC)c2)C1"
tested_target = "Dopamine receptor"
uom = "nM"
readout_value = 49

[[record]]
compound = "CCCN1CCC[C@@H](c2ccccc2OS(=O)(=O)C(F)(F)F)C1"
tested_target = "Dopamine receptor"
uom = "nM"
readout_value = 315

[[record]]
compound = "CCCN1CCC[C@@H](c2cccc(OS(=O)(=O)c3ccc(C)cc3)c2)C1"
tested_target = "Dopamine receptor"
uom = "nM"
readout_value = 162

[[record]]
compound = "CCCN1CCCC2c3cccc(OS(=O)(=O)C(F)(F)F)c3CCC21 (stereo in doubt; 45)"
tested_target = "Dopamine receptor"
uom = "nM"
readout_value = 744

[[record]]
compound = "CCCN1CCC[C@@H](c2cccc(Br)c2)C1"
tested_target = "Dopamine receptor"
uom = "nM"
readout_value = 106

[[record]]
compound = "CCCN1CCC[C@@H](c2cccc(C)c2)C1"
tested_target = "Dopamine receptor"
uom = "nM"
readout_value = 430

[[record]]
compound = "C#Cc1cccc([C@@H]2CCCN(CCC)C2)c1"
tested_target = "Dopamine receptor"
uom = "nM"
readout_value = 334

[[record]]
compound = "C=CCN1CC[C@@H]2c3cccc(OS(=O)(=O)C(F)(F)F)c3CC[C@@H]21 (stereo in doubt; 49)"
tested_target = "Dopamine receptor"
uom = "nM"
readout_value = 353


Please state Ki for every compound in the list that follows.
1. CCCN1CCC[C@@H](c2cccc(C=O)c2)C1
2. O=S(=O)(Oc1cccc([C@@H]2CCCN(CCc3ccccc3)C2)c1)C(F)(F)F
3. CCCN1CCC2c3cccc(OS(=O)(=O)C(F)(F)F)c3CCC21 (centres undefined)

# output
[20, 11, 89]

* * *

- Tested Target: D(2) dopamine receptor (Homo sapiens)
- Sequence (P14416 whole entry): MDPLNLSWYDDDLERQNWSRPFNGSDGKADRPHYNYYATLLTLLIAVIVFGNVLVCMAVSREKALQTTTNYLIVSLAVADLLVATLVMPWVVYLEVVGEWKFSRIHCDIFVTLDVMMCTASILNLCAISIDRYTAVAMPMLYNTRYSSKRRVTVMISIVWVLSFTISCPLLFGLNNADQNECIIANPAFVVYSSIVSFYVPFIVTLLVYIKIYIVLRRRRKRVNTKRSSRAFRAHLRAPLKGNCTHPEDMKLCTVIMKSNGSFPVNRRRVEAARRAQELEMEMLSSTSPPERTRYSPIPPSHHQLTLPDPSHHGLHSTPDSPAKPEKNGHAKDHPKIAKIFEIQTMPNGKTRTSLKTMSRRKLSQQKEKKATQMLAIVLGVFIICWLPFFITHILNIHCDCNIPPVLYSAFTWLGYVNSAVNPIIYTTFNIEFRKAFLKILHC
- Procedure Details: biochemical
- Description: Affinity against recombinant dopamine receptor (DA) D2 expressed in CHO-K1 cells, using [3H]-spiperone as radioligand
pKi: −log10 of the molar value.
Measured Attribute: pKi

[[record]]
molecule = "CCCN1CCC[C@@H](c2cccc(OS(=O)(=O)c3ccc(C)cc3)c2)C1"
tested_target = "D(2) dopamine receptor (Homo sapiens)"
readout_value = "< 6.66"

[[record]]
molecule = "CCCN1CCC2c3cccc(OS(=O)(=O)C(F)(F)F)c3CCC21 (stereo unspecified)"
tested_target = "D(2) dopamine receptor (Homo sapiens)"
readout_value = "< 6.66"

[[record]]
molecule = "C#CCN1CCC[C@@H](c2cccc(C#N)c2)C1"
tested_target = "D(2) dopamine receptor (Homo sapiens)"
readout_value = "< 6.66"

[[record]]
molecule = "CCCN1CCC[C@@H](c2cccc(C(=O)OC)c2)C1"
tested_target = "D(2) dopamine receptor (Homo sapiens)"
readout_value = "< 6.66"

[[record]]
molecule = "C=CCN1CCC[C@@H](c2cccc(C#N)c2)C1"
tested_target = "D(2) dopamine receptor (Homo sapiens)"
readout_value = "< 6.66"

[[record]]
molecule = "CCCN1CCC[C@@H](c2cccc(NS(=O)(=O)C(F)(F)F)c2)C1"
tested_target = "D(2) dopamine receptor (Homo sapiens)"
readout_value = "< 6.66"


Go through the list and state pKi for each entry.
1. O=S(=O)(Oc1cccc([C@@H]2CCCN(CCc3ccccc3)C2)c1)C(F)(F)F
2. N#Cc1cccc([C@@H]2CCCN(CCCc3ccccc3)C2)c1
3. CCN1CCC[C@@H](c2cccc(C#N)c2)C1
4. C=CCN1CCC2c3cccc(OS(=O)(=O)C(F)(F)F)c3CCC21 (stereo unspecified)
5. CCCN1CCC[C@@H](c2cccc(C)c2)C1

# output
1: 7.14; 2: 7.22; 3: < 6.66; 4: < 6.66; 5: < 6.66
